Test system: Setaria faberi (SETFA)
Assay: Post-emergence Test (glasshouse, percentage damage to the plant)
Type: in vivo
Details: post-emergence spray, 1000 g/ha unless otherwise stated, evaluated after 13 days
Parameter: Post-emergence Test SETFA, percentage damage to the plant (five-point scale). Scope: all listed entries.

compound=CCn1c(C)c(-c2cncc(Cl)c2)c(=O)c(C(=O)O)c1-c1ccc(Cl)c(Cl)c1 assayed_target="Setaria faberi (SETFA)" result="4 (4=61-80%)"
compound=CCn1c(C)c(-c2ccc(F)cc2F)c(=O)c(C(=O)O)c1-c1ccc(Cl)cc1 assayed_target="Setaria faberi (SETFA)" result="4 (4=61-80%)"
compound=CCn1c(C)c(-c2ccc(C(F)(F)F)cc2)c(=O)c(C(=O)O)c1-c1ccc(Cl)c(Cl)n1 assayed_target="Setaria faberi (SETFA)" result="4 (4=61-80%)"
compound=CCn1c(C)c(-c2cc(F)cc(C#N)c2)c(=O)c(C(=O)O)c1-c1ccc(Cl)c(Cl)c1 assayed_target="Setaria faberi (SETFA)" result="3 (3=41-60%)"
compound=CCn1c(C)c(-c2cc(C)cc(C#N)c2)c(=O)c(C(=O)O)c1-c1ccc(Cl)c(Cl)c1 assayed_target="Setaria faberi (SETFA)" result="3 (3=41-60%)"
compound=CCn1c(C)c(-c2cccc(C(F)F)c2)c(=O)c(C(=O)O)c1-c1ccc(Cl)c(Cl)c1 assayed_target="Setaria faberi (SETFA)" result="1 (1=0-20%)"
compound="CCn1c(C)c(-c2ccc(C(F)(F)F)c(Cl)c2)c(=O)c(C(=O)O)c1-c1ccc(Cl)cc1 [Compound 171]" assayed_target="Setaria faberi (SETFA)" result="3 (3=41-60%)"
compound=CCn1c(C)c(-c2cscc2C)c(=O)c(C(=O)O)c1-c1ccc(Cl)c(Cl)c1 assayed_target="Setaria faberi (SETFA)" result="4 (4=61-80%)"

Post-emergence Test SETFA, percentage damage to the plant (five-point scale) in this record for CCn1c(C)c(-c2ccc(Cl)cc2)c(=O)c(C(=O)O)c1-c1ccc(Br)cc1F : 1 (1=0-20%)

Query CCn1c(C)c(-c2cc(F)cc(Cl)c2)c(=O)c(C(=O)O)c1-c1ccc(Cl)c(Cl)c1 yields Post-emergence Test SETFA, percentage damage to the plant (five-point scale) of 1 (1=0-20%)

The reported value for CCn1c(C)c(-c2ccn(C)c(=O)c2)c(=O)c(C(=O)O)c1-c1ccc(Cl)c(Cl)c1 in terms of Post-emergence Test SETFA, percentage damage to the plant (five-point scale) is 1 (1=0-20%)

###

Test system: Zea mays (ZEAMX)
Assay: Pre-emergence Test (glasshouse, percentage damage to the plant)
Type: in vivo
Conditions: 1000 g/ha unless otherwise stated, five-point scale
reported-metric: percentage damage to the plant, ZEAMX

Examples with their reported percentage damage to the plant, ZEAMX follow.
entry_smiles=CCn1c(C)c(-c2cc(C(F)(F)F)ccc2Cl)c(=O)c(C(=O)O)c1-c1ccc(Cl)cc1 result=0
entry_smiles=CCn1c(C)c(-c2cccc(Cl)c2)c(=O)c(C(=O)O)c1-c1ccc(Cl)c(Cl)n1 result=0
entry_smiles=CCNC(=O)c1cc(-c2c(C)n(CC)c(-c3ccc(Cl)c(Cl)c3)c(C(=O)O)c2=O)ccc1Cl result="1 (1=0-20%)"
entry_smiles=CCn1c(C)c(-c2ccc(C#N)c(C(F)(F)F)c2)c(=O)c(C(=O)O)c1-c1ccc(Cl)cc1 result="1 (1=0-20%)"
entry_smiles=CCn1c(C)c(-c2cccc(C(C)=O)c2)c(=O)c(C(=O)O)c1-c1ccc(Cl)c(Cl)c1 result="1 (1=0-20%)"
entry_smiles=CCn1c(C)c(-c2ccc(COC)cc2)c(=O)c(C(=O)O)c1-c1ccc(Cl)c(Cl)c1 result="3 (3=41-60%)"

Please turn your attention to the following entry.
In plain terms, CCn1c(C)c(-c2cc(Cl)c(OC)c(OC)c2)c(=O)c(C(=O)O)c1-c1ccc(Cl)c(Cl)c1 has a documented percentage damage to the plant, ZEAMX of 1 (1=0-20%)
